Data origin, for the record: ChEMBL document CHEMBL3870349

Method notes: Kinetic solubility of compound in PBS buffer at pH 7.4 after 1 hr by micro-plate nephelometric analysis
Format: physicochemical
Applied conditions: read-out: Kinetic_solubility
Recorded endpoint: solubility kinetic at 1 h (µM)

I. CCN(c1cc(-c2ccc(CN3CCOCC3)cc2)cc(C(=O)NCc2c(C)cc(C)[nH]c2=O)c1C)C1CCOCC1
II. Cc1cc(C)c(CNC(=O)c2cc(-c3ccc(N4CCNCC4)nc3)cc3c2C(C)CN3C2CCOCC2)c(=O)[nH]1 (stereo in doubt; 41e1)
IN: Between I and II , whose recorded solubility kinetic at 1 h is greater? # respond with the chosen item's label
OUT: II

* * *

Method notes: Oxidative metabolic stability in mouse liver microsomes assessed as amount of parent compound remaining at 1 uM after 30 mins by LC-MS/MS
Assay type: ADME
Applied conditions: read-out: Stability
Recorded endpoint: remaining at 0.5 h, 1 µM (%)

Compound | Display unit | remaining at 0.5 h, 1 µM
Cc1cc(C)c(CNC(=O)c2cc(-c3ccc(N4CCNCC4)nc3)cc3c2C(C)CN3C2CCOCC2)c(=O)[nH]1 (stereo in doubt; 41e1) | % | 95

P. CCN(c1cc(-c2ccc(CN3CCOCC3)cc2)cc(C(=O)NCc2c(C)cc(C)[nH]c2=O)c1C)C1CCOCC1
Q. Cc1cc(C)c(CNC(=O)c2cc(-c3ccc(CN4CCOCC4)cc3)cc3c2C(C)CN3C2CCOCC2)c(=O)[nH]1 (stereo in doubt; 34e1)
IN: Could you determine which record has the numerically smaller remaining at 0.5 h, 1 µM? Candidates: P and Q # respond with the chosen item's label
OUT: P
